- Experimental protocol: qHTS assay to identify small molecule agonists of the constitutive androstane receptor (CAR) signaling pathway - cell viability counter screen (AID 1224836); further: nearly all actives have a fitted effect of over 45% in size
- Test settings: HepG2-CYP2B6-hCAR viability, CellTiter-Fluor, 23 h, PK11195 added to every well; series mostly up to 92.4 µM
- Description: U.S. Tox21 Program National Center for Advancing Translational Sciences [NCATS] NIH Chemical Genomics Center [NCGC] U.S. Environmental Protection Agency [EPA] National Institutes of Environmental Health Sciences [NIEHS] National Toxicology Program [NTP] U.S. Food and Drug Administration [FDA] […] Tox21 Assay Protocol Summary: A double-stable (hCAR and CYP2B6-2.2kb) transfected cell line, derived from human hepatoma (HepG2) cells, was utilized for the duration of the quantitative high-throughput screens. […]
Inconclusive results are not listed. Active and inactive are the calls of the source. The call rests on the fitted dose curve; in most records, active means well fitted cell-killing curve with a large enough effect in the repeat runs; inconclusive means weak or mixed curves, or effect the other way; inactive means flat fitted curve, though single readings scatter.
Observation type: outcome

INSERT INTO results (molecule, observation_type, reported_value) VALUES
  ('O=C(/C=C/c1ccccc1)OCCc1ccccc1', 'outcome', 'inactive'),
  ('COc1cc(Nc2c(C#N)cnc3cc(OCCCN4CCN(C)CC4)c(OC)cc23)c(Cl)cc1Cl', 'outcome', 'inactive'),
  ('Cc1ccco1', 'outcome', 'inactive'),
  ('c1ccc(C[n+]2cccc3ccccc32)cc1', 'outcome', 'inactive');

Query :: Would you kindly share the measured outcome for O=c1cc(-c2ccccc2)oc2ccc3ccccc3c12 ?
Result :: inactive
